Molecular target: Cathepsin S (UniProt P25774)
Experiment: Cathepsin enzyme inhibition assay (fluorogenic peptide substrate Z-Val-Val-Arg-AMC), Cathepsin S
Format: biochemical, human and mouse
Settings: enzyme 1 nM, substrate 20 μM, pH 6.5; read-out: CatS IC50
Measurement Name: IC50 (nM)

Smiles Code | Measurement Name | Measurement
N#CC1(NC(=O)[C@@H]2C[C@@H](S(=O)(=O)c3ccccc3Cl)CN2C(=O)C2(c3cccc(Cl)c3)CC2)CC1 | IC50 | 0.415

[A] CC(C)CS(=O)(=O)[C@@H]1C[C@@H](C(=O)NC2(C#N)CC2)N(C(=O)C2(c3ccc(Cl)cc3)CC2)C1
[B] N#CC1(NC(=O)[C@@H]2C[C@@H](S(=O)(=O)c3ccccc3Cl)CN2S(=O)(=O)c2ccc3ccccc3c2)CC1
[C] CC(C)(C)OC(=O)N1C[C@H](S(=O)(=O)c2ccc(F)cc2F)C[C@H]1C(=O)NC1(C#N)CC1
[D] N#CC1(NC(=O)[C@@H]2C[C@@H](S(=O)(=O)c3ccc(OCC(F)(F)F)cc3Cl)CN2C(=O)C2(c3cccc(C(F)(F)F)c3)CC2)CC1
[E] N#CC1(NC(=O)[C@@H]2C[C@@H](S(=O)(=O)c3ccccc3C(F)(F)F)CN2C(=O)C2(c3ccc(Cl)nc3)CC2)CC1
Order each entry by recorded IC50, climbing from the minimum. Your answer should be the labels, listed in the requested order.
E, D, B, C, A

* * *

Target: Cat L (UniProt P07711)
Experiment: Cathepsin enzyme inhibition assay (fluorogenic peptide substrate Z-Val-Val-Arg-AMC), Cathepsin L
Format: biochemical, human and mouse
Conditions: enzyme 1 nM, substrate 20 μM, pH 6.5; read-out: CatL IC50
pIC50: −log10 of the molar value.
Measurement Name: pIC50

Worked examples follow.
Molecule | Measurement
N#CC1(NC(=O)[C@@H]2C[C@@H](S(=O)(=O)c3ccc(OCC(F)(F)F)cc3Cl)CN2C(=O)C2CC2c2ccccc2)CC1 (some centres unmarked) [Example 246] | 6.73
N#CC1(NC(=O)[C@@H]2C[C@@H](S(=O)(=O)c3ccc(-n4ccc5ncnc-5c4)cc3Cl)CN2C(=O)C2(c3ccc(Cl)cc3)CC2)CC1 | 6.59

[I] Cc1cc(N2C[C@H](S(=O)(=O)c3ccc(OCC(F)(F)F)cc3C(F)(F)F)C[C@H]2C(=O)NC2(C#N)CC2)n(-c2ccc(C(F)(F)F)cc2)n1
[II] CC1(C(=O)N2C[C@H](S(=O)(=O)c3ccccc3Cl)C[C@H]2C(=O)NC2(C#N)CC2)CC1
Identify the entry with the larger pIC50. Options: I and II Lab note: record the label of whichever item you select.
II

* * *

Target: UniProtKB P25774
Experiment: Cathepsin enzyme inhibition assay (fluorogenic peptide substrate Z-Val-Val-Arg-AMC), Cathepsin S
Format: biochemical, human and mouse
Conditions: enzyme 1 nM, substrate 20 μM, pH 6.5; read-out: CatS IC50
pIC50: −log10 of the molar value.
Measurement Name: pIC50

Compound | pIC50
CC(C)CC(=O)N1C[C@H](S(=O)(=O)c2ccccc2Cl)C[C@H]1C(=O)NC1(C#N)CC1 | 9.40
Cc1cc(N2C[C@H](S(=O)(=O)c3ccccc3C(F)(F)F)C[C@H]2C(=O)NC2(C#N)CC2)n(CC(C)C)n1 | 9.01
N#CC1(NC(=O)[C@@H]2C[C@@H](S(=O)(=O)c3ccc(OCC(F)(F)F)cc3Cl)CN2C(=O)C2(c3ccc4c(c3)OCO4)CC2)CC1 | 10.30
N#CCNC(=O)C12CC(F)(F)CN1CCC2S(=O)(=O)c1ccccc1 (stereo not shown) [Example 116] | 7.45
N#CC1(NC(=O)[C@H]2C[C@@H](S(=O)(=O)c3ccc(N4CCOCC4)cc3Cl)CN2C(=O)C2(C(F)(F)F)CC2)CC1 | 7.63
CC(C)(C)OC(=O)N1C[C@H](S(=O)(=O)c2c(Cl)cccc2Cl)C[C@H]1C(=O)NC1(C#N)CC1 [Example 47] | 8.85
Cc1cc(N2C[C@H](S(=O)(=O)c3ccc(N4CCN(C(C)(C)C)CC4)cc3Cl)C[C@H]2C(=O)NC2(C#N)CC2)n(C2CCOCC2)n1 | 9.22
CC(C)(C)N1CCN(c2ccc(S(=O)(=O)[C@@H]3C[C@@H](C(=O)NC4(C#N)CC4)N(C(=O)C4(c5ccc(Cl)nc5)CC4)C3)c(Cl)c2)CC1 | 10.10

[a] COCCOc1ccc(S(=O)(=O)[C@@H]2C[C@@H](C(=O)NC3(C#N)CC3)N(C(=O)C3(c4ccc(Cl)cc4)CC3)C2)c(Cl)c1
[b] N#CC1(NC(=O)[C@@H]2C[C@@H](S(=O)(=O)c3ccc(OCC(F)(F)F)cc3Cl)CN2C(=O)C2(C(F)(F)F)CC2)CC1
[c] C[C@H](Oc1ccc(S(=O)(=O)[C@@H]2C[C@H](C(=O)NC3(C#N)CC3)N(C(=O)C3CC3)C2)c(Cl)c1)C(F)(F)F
[d] CC1(C(=O)N2C[C@H](S(=O)(=O)c3ccc(-c4ccc(F)cc4F)cc3C(F)(F)F)C[C@H]2C(=O)NC2(C#N)CC2)CC1
[e] CC(C)(C)c1ccc([C@@H]2N[C@](CCS(=O)(=O)c3ccccc3)(C(=O)NC3(C#N)CC3)C[C@H]2S(=O)(=O)c2ccccc2)cc1
Rank the 5 compounds: largest pIC50 first, smallest last. Enter labels, ranked according to the request.
a, d, b, c, e
(a: 10.10, d: 9.72, b: 9.40, c: 7.57, e: 7.07)

Taken from patent US8163793B2.
